- Tested on: ATP;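 also: ATP exposure 15 min at 22 °C before imaging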
- test-protocol: switch fluorescence ratio, 500 uM ATP over buffer (Cy3 cluster intensity, sum of 5 cycles each) (fold (ratio)); higher = stronger signal-on switching upon ATP binding; sequences stand for … in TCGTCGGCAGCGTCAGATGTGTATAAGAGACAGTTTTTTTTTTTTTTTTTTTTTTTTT…TC
- condition-parameters: aptamer strand: ATP DNA aptamer (quencher-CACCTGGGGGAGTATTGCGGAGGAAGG + anchor), 100 nM annealed; ATP concentration: 500 uM
Measured switch fluorescence ratio, listed per entry for reference.
Response field accepts a number only; no unit should be typed.

Using the record for AATTTAAAAA , report its switch fluorescence ratio.
0.986

Using the record for CAGTTGGGTT , report its switch fluorescence ratio.
1.02

Using the record for TTATATTGAT , report its switch fluorescence ratio.
1.02

Using the record for TTTGTTTTTG , report its switch fluorescence ratio.
1

Using the record for TCAGTCAACC , report its switch fluorescence ratio.
1.1

Using the record for CGATAGGTTT , report its switch fluorescence ratio.
1

Using the record for AAAAAAGTTC , report its switch fluorescence ratio.
0.984

Using the record for AATCGGCGCT , report its switch fluorescence ratio.
1.01

Using the record for CAGAGGCCAG , report its switch fluorescence ratio.
0.993

Using the record for TGTGGGGGCG , report its switch fluorescence ratio.
1.01

Using the record for TTTTGGGGC , report its switch fluorescence ratio.
1.04

====

Measured switch fluorescence ratio, listed per entry for reference.
- Tested on: ATP;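 also: ATP exposure 15 min at 22 °C before imaging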
- test-protocol: switch fluorescence ratio, 500 uM ATP over buffer (Cy3 cluster intensity, sum of 5 cycles each) (fold (ratio)); higher = stronger signal-on switching upon ATP binding; sequences stand for … in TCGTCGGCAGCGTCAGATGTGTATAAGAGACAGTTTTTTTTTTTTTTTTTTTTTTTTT…TC
- condition-parameters: aptamer strand: ATP DNA aptamer (quencher-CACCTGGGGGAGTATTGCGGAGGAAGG + anchor), 100 nM annealed; ATP concentration: 500 uM
Response field accepts a number only; no unit should be typed.

Consider the reported switch fluorescence ratio for these sequences:
TGGGGGATGG ... 0.996
TCATGGGGCG ... 0.993

Using the record for ACGAGAGGGT , report its switch fluorescence ratio.
0.973

Using the record for GATTTATATC , report its switch fluorescence ratio.
0.993

Using the record for GAAATTTAAA , report its switch fluorescence ratio.
0.998

Using the record for GCGCAGTCGG , report its switch fluorescence ratio.
1.03

Using the record for ATATGCAGGG , report its switch fluorescence ratio.
0.993

Using the record for TCTTGTATAG , report its switch fluorescence ratio.
0.966

====

Measured switch fluorescence ratio, listed per entry for reference.
- Test system: ATP;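 also: ATP exposure 15 min at 22 °C before imaging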
- test-protocol: switch fluorescence ratio, 500 uM ATP over buffer (Cy3 cluster intensity, sum of 5 cycles each) (fold (ratio)); higher = stronger signal-on switching upon ATP binding; sequences stand for … in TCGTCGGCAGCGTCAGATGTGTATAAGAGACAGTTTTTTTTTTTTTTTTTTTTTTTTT…TC
- condition-parameters: aptamer strand: ATP DNA aptamer (quencher-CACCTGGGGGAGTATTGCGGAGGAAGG + anchor), 100 nM annealed; ATP concentration: 500 uM
Response field accepts a number only; no unit should be typed.

GATGTTTGGT ... 0.99
GACGTAGAGC ... 1.08

Using the record for AGTGGGGATC , report its switch fluorescence ratio.
1.03

Using the record for CGATCGGTGG , report its switch fluorescence ratio.
1.01
